Data credit: the supplement of paper PMC6555819

Test system: VDR homodimer (NR concentration 270 nM)
EXPERIMENTAL_DETAILS: PBM binding z-score (relative to random genomic background probes); higher = stronger binding; sequences stand for … in GC…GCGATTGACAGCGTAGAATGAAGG
Group membership follows PBM binding z-score per the scheme bin 0 = under 0.1, bin 1 = from 0.1 up to 0.9, bin 2 = 0.9 and over

                        sequence_chain  assigned_class
 0  TCTTGTAGATCTATAGAGGTTAAGAAAGTGCGCT           bin 1
 1  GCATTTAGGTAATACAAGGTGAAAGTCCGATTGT           bin 0
 2  TCTAGCAGGCCAGAGGGTCACTTAAGAGGTACGG           bin 1
 3  TCTTGTAGATCAACAGAAGGTTAAGAAAGATCGA           bin 0
 4  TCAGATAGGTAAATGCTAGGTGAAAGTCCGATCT           bin 0
 5  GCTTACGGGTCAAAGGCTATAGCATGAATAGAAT           bin 1
 6  CAGCCTAGGTCATGGCCAGTATAGGAGGAACGTT           bin 1
 7  TCATATAGGTAAATAGGTGAAAGTCCGTAAGTTA           bin 1
 8  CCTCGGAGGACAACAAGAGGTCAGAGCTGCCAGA           bin 2
 9  GCGACAGGGGCAAAGCAGGTTACCATAAGGTTGG           bin 1
10  GCTTACGGGTCAAAGGTTATAGCGTGAATAGAAT           bin 2
11  AGAATGAGGTTATTAAGATCAGAGAATTGCGGTC           bin 2
12  ACTAGCAGCCCAAGGGTCACTCAAGATTAGTCCG           bin 1
13  CCGACTGGCGCAAGGTTACCATAACGCACAGCCA           bin 0
14  GCGACTGGGGCACCAGCAGGTTACCATAACTTAA           bin 0
15  GCTAGTAGTTGAAAGGGCAACCGAATGATTCTCG           bin 0
16  ACCGAAAGGTCGAGGTGAGTATAGAGAAAGGGAA           bin 1
17  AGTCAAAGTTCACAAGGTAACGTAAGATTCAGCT           bin 2
18  GCTAGCAGGCCATTTGGGTCATTCAATGACGGGC           bin 2
19  GATACAGGGTCAGCTAGTGGCCAGAGTATGGAAA           bin 1
20  TCTAGTTGGTCACGGAGTTCACACACGACGGGTA           bin 2
21  TCTAGTTGGTCAAGGGTCACACACTCGAAATGCG           bin 2
22  TGTCCAAGTTCAAAGGTAACGTAAGTATCCACAC           bin 2
23  GCGACTGGGGCAAAGCAGGTTAGCATAAGGTTGG           bin 0
24  CGAACGAGGGCATGAGTTGATAGGAAATGCCGAT           bin 2
25  TCGAGTAGGTAAGGGGCATTCAGAATGGCGTCGA           bin 1
26  GATACAGGCTCAAGGCCAGAGTACGCGTATTGAT           bin 0
